Biological target: T1, PUF4 RNA-binding domain (Saccharomyces cerevisiae, UniProt P25339 537-888)
T1 sequence: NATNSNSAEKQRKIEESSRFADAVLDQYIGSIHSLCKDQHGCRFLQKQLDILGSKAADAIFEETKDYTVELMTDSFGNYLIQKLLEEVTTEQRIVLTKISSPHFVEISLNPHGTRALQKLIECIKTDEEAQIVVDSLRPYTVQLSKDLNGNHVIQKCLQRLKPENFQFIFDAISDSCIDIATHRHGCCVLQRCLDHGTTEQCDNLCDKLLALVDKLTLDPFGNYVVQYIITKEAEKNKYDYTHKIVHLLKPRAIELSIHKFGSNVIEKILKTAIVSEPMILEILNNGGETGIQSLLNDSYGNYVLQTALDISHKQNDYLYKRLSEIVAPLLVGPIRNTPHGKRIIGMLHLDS
Assay: Mg; RNA-MaP; 20 mM Na-HEPES pH 7.4, 30 mM KOAc, 0.75 mM MgCl2, 0.1% Tween-20, 5% glycerol, 0.1 mg/mL BSA, 2 mM DTT; 25 C; 0.0125-409.6 nM protein
Details: tags: N-His6-TEV cleaved; C-SNAP kept, Cy3B-labelled; label: tethered on chip by stalled RNA polymerase
Listing: pKd of selected binders
Kindly note that pKd refers to -log10 of the concentration in mol/L and answer with the value alone.

Ic_S4_P3E.1_K3.1_C3.1_H3.1_A3.1_[T5G]_[A6C]_F3.1_[T7G]_[A8C]_T3.1 (ssRNA) RNA: UUUGACAACUGAUCGUUCUUUCUUGUAGCGCUUCUUUCUCGAUCAGUUGUCUUU	5.77

Ask: Which pKd reading was recorded for the binder UCUCUUUGUUUGUAUCUCUU (ssRNA) [Ib_S1_P3E.1_K3.1_C3.1_H3.1_[A4T]_A3.1_[A6G]_F3.1_T3.1] ?
Result: 6.88

The reported numbers originate from paper PMC9352680.
